Target: Thyrotropin receptor (Homo sapiens)
Test: qHTS assay to identify small molecule agonists of the thyroid stimulating hormone receptor (TSHR) signaling pathway (AID 1224843); also: potency is read from the fitted curve at half-maximal effect; nearly all actives have a fitted effect of over 45% in size
Conditions: TSHR-HEK293 cells, cAMP HTRF, agonist mode, 30 min; series mostly up to 92.4 µM
Inconclusive results are not listed. Active and inactive are the calls of the source. Calls follow the shape of the full dose curve.
observationType: Potency

What is its Potency for Thyrotropin receptor (Homo sapiens)? Entry: COc1ccc(-c2nc3ccc(C4=NNC(=O)CC4C)cc3[nH]2)cc1 (centres undefined) 9.44 µM (active)

Give Thyrotropin receptor (Homo sapiens) Potency for Cc1ccc(C(=O)Oc2ccc(C(O)CNC(C)(C)C)cc2OC(=O)c2ccc(C)cc2)cc1 (centres undefined) 0.0473 µM (active)

Which Potency is reported with Thyrotropin receptor (Homo sapiens) for this entry: "CCOC(=O)C1=C[C@]2(CC)CCCN3CCc4c(n1c1ccccc41)[C@@H]32" ? 18.8 µM (active)

Please provide the recorded Potency for O[C@@H](COc1cccc2ncccc12)CN1CCN(C2c3ccccc3[C@@H]3[C@H](c4ccccc42)C3(F)F)CC1 (some centres undefined) , tested on Thyrotropin receptor (Homo sapiens). 11.9 µM (active)
